Molecular target: HIS-TGFβR2 WT (Homo sapiens, UniProt P37173)
Sequence (P37173 23-567): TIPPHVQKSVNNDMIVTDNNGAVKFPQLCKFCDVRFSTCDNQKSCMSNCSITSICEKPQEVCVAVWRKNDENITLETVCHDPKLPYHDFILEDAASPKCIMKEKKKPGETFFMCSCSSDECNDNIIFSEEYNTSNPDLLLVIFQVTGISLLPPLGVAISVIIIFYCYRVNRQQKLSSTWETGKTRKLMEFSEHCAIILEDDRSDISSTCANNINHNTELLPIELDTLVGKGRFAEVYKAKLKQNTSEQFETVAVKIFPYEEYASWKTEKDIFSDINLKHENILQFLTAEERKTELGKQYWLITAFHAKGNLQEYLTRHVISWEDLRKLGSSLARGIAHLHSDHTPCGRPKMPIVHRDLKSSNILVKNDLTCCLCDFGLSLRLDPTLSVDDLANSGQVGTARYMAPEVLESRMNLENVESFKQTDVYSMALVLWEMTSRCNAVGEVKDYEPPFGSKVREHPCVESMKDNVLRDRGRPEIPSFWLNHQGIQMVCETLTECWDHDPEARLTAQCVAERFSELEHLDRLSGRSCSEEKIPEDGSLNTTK
Assay: HTRF probe-displacement assay, HIS-TGFβR2 WT
Format: binding
Answer each item with its documented IC50.

Query Smiles: CC(=O)Nc1cc(-c2[nH]c3cccnc3c2-c2nc(C#N)cs2)ccn1
Measurement Name: IC50
Result: > 15 µM
--
Query Smiles: COC(=O)Nc1cc(-c2[nH]c3cc(OC)cnc3c2-c2ccc(OC)cn2)ccn1
Measurement Name: IC50
Result: 12.8 µM
--
Query Smiles: COc1ccnc2c(-c3cccc(C)n3)c(-c3ccnc(NC(C)=O)c3)[nH]c12
Measurement Name: IC50
Result: 6.21 µM
--
Query Smiles: CC(=O)Nc1cc(-c2[nH]c3cc(Cl)cnc3c2-c2nc(C)ns2)ccn1
Measurement Name: IC50
Result: > 15 µM
--
Query Smiles: CCOc1cccc(-c2c(-c3ccnc(NC(C)=O)c3)[nH]c3cc(Cl)cnc23)n1
Measurement Name: IC50
Result: > 15 µM
--
Query Smiles: CC(=O)Nc1cc(-c2[nH]c3cccnc3c2-c2cnn(C)c2)ccn1
Measurement Name: IC50
Result: 0.424 µM
--
Query Smiles: CCOc1ccnc2c(-c3cccc(C(F)F)n3)c(-c3ccnc(NC(C)=O)c3)[nH]c12
Measurement Name: IC50
Result: > 15 µM

Next, consider the following compound.
Sample COc1ccc(-c2c(-c3ccnc(NC(C)=O)c3)[nH]c3cc(N4CCC[C@H]4CO)cnc23)nc1 ; IC50 observed: > 15 µM

====

Target: UniProtKB P37173
Experiment: HTRF probe-displacement assay, HIS-TGFβR2 WT
Format: binding
Measurement Name: IC50

Examples with answers:
Query Smiles: COc1ccnc2c(-c3cccc(C(F)F)n3)c(-c3ccnc(NC(C)=O)c3)[nH]c12
IC50: > 15 µM
//
Query Smiles: CCN1CCN(CC(=O)Nc2cc(-c3[nH]c4cc(Cl)cnc4c3-c3ccc(OC)cn3)ccn2)CC1
IC50: > 15 µM

Next, consider the following molecule.
UniProtKB P37173 data for COc1ccc(-c2c(-c3ccnc(NC(C)=O)c3)[nH]c3cc(Cl)cnc23)nc1Cl ; its IC50: > 15 µM

====

Target: UniProt:P37173
Assay: HTRF probe-displacement assay, HIS-TGFβR2 WT
Assay type: binding
Measurement Name: IC50

Query Smiles: CC(=O)Nc1cc(-c2[nH]c3cc(Cl)cnc3c2-c2ccc(OC(C)C)cn2)ccn1
Tgt: UniProt:P37173
IC50: > 15 µM

For every item below, please supply its IC50.
1. O=C(CN1CCNCC1)Nc1cc(-c2[nH]c3cc(Cl)cnc3c2-c2ccc(F)cn2)ccn1
2. COc1ccc(-c2c(-c3ccnc(NC(C)=O)c3)[nH]c3cccnc23)nc1Cl

1. ≥ 15 µM
2. > 15 µM

====

Biological target: UniProt P37173
Test: HTRF probe-displacement assay, HIS-TGFβR2 WT
Format: binding
Answer each item with its documented IC50.
Give bare numbers, in µM.

Molecule: CC(=O)Nc1cc(-c2[nH]c3c(C)ccnc3c2-c2nc(C(F)F)cs2)ccn1
Tgt: UniProt P37173
Result Units: µM
IC50: 1.38

For every item below, please supply its IC50.
1. CC(=O)Nc1cc(-c2[nH]c3cc(OC4COC4)cnc3c2-c2cccc(C(F)F)n2)ccn1
2. CCOc1ccc(-c2c(-c3ccnc(NC(C)=O)c3)[nH]c3cc(Cl)cnc23)cn1
3. CC(=O)Nc1cc(-c2[nH]c3cc(C)cnc3c2-c2nc(C#N)cs2)ccn1
4. COc1ccc(-c2c(-c3ccnc(NC(C)=O)c3)[nH]c3cc(C(O)C(F)(F)F)cnc23)nc1 (centres unmarked)
5. CC(=O)Nc1cc(-c2[nH]c3cccnc3c2-c2cnc(F)c(F)c2)ccn1
6. COc1ccc(-c2c(-c3ccnc(NC(C)=O)c3)[nH]c3c(C(=O)NC(CO)CO)ccnc23)cn1

1. 2.75
2. 6.29
3. 0.544
4. 4.33
5. 0.01
6. 6.37

Sample CC(=O)Nc1cc(-c2[nH]c3cc(Cl)cnc3c2-c2cc(C)c(F)cn2)ccn1 ; IC50 observed: 0.34
